- Tested on: E. coli
- measurement_notes: Range of MIC for E. coli strains
- experimental_parameters: Escherichia coli, read-out: Range of MIC, E. coli (mouse serum)
Can you tell me MIC for the items I'm about to list?

Example entries begin here.
| smiles_text | MIC |
| --- | --- |
| CCCN(CC(=O)Nc1cc(N(C)C)c2c(c1O)C(=O)C1=C(O)[C@]3(O)C(=O)C(C(N)=O)=C(O)[C@@H](N(C)C)[C@@H]3C[C@@H]1C2)C(=O)OCOC(=O)CC(C)(C)C | 4 to 8 µg/mL |
| CCCN(CC(=O)Nc1cc(N(C)C)c2c(c1O)C(=O)C1=C(O)[C@]3(O)C(=O)C(C(N)=O)=C(O)[C@@H](N(C)C)[C@@H]3C[C@@H]1C2)C(=O)OCOC(=O)c1ccsc1 | 0.5 to 1 µg/mL |
| CCCN(CC(=O)Nc1cc(N(C)C)c2c(c1O)C(=O)C1=C(O)[C@]3(O)C(=O)C(C(N)=O)=C(O)[C@@H](N(C)C)[C@@H]3C[C@@H]1C2)C(=O)OCOC(=O)C(C)(C)C | 0.5 to 2 µg/mL |
| CCCN(CC(=O)Nc1cc(N(C)C)c2c(c1O)C(=O)C1=C(O)[C@]3(O)C(=O)C(C(N)=O)=C(O)[C@@H](N(C)C)[C@@H]3C[C@@H]1C2)C(=O)OCOC(=O)Cc1ccccc1 | 0.25 to 2 µg/mL |
| CCCN(CC(=O)Nc1cc(N(C)C)c2c(c1O)C(=O)C1=C(O)[C@]3(O)C(=O)C(C(N)=O)=C(O)[C@@H](N(C)C)[C@@H]3C[C@@H]1C2)C(=O)OCOC(=O)C12CC3CC(CC(C3)C1)C2 | 0.5 to 4 µg/mL |

With those in mind, consider the next molecule.
The molecule CCCN(CC(=O)Nc1cc(N(C)C)c2c(c1O)C(=O)C1=C(O)[C@]3(O)C(=O)C(C(N)=O)=C(O)[C@@H](N(C)C)[C@@H]3C[C@@H]1C2)C(=O)OCOC(=O)C1CCC1 showed MIC equal to 0.25 to 2 µg/mL

###

- System: Staph.
- measurement_notes: Range of MIC for Staph. strains, including MRSA
- experimental_parameters: Staphylococcus aureus, MRSA, read-out: Minimum inhibitory concentration (MIC), Staph. (water)
recorded_endpoint: MIC

| molecule | MIC |
| --- | --- |
| CCCCN(CC(=O)Nc1cc(N(C)C)c2c(c1O)C(=O)C1=C(O)[C@]3(O)C(=O)C(C(N)=O)=C(O)[C@@H](N(C)C)[C@@H]3C[C@@H]1C2)C(=O)OCOC(=O)C1CCC1 [Example 18] | 1 to 4 µg/mL |
| CCCCN(CC(=O)Nc1cc(N(C)C)c2c(c1O)C(=O)C1=C(O)[C@]3(O)C(=O)C(C(N)=O)=C(O)[C@@H](N(C)C)C3CC1C2)C(=O)OCOC(=O)c1ccc(C)cc1 (stereo partly drawn) [Example 3] | 4 to 32 µg/mL |

Would you be so kind as to report MIC for each listed record?
1. CCCCN(CC(=O)Nc1cc(N(C)C)c2c(c1O)C(=O)C1=C(O)[C@]3(O)C(=O)C(C(N)=O)=C(O)[C@@H](N(C)C)[C@@H]3C[C@@H]1C2)C(=O)OCOC(=O)c1cccs1 [Example 23]
2. CCCCN(CC(=O)Nc1cc(N(C)C)c2c(c1O)C(=O)C1=C(O)[C@]3(O)C(=O)C(C(N)=O)=C(O)[C@@H](N(C)C)C3CC1C2)C(=O)OCOC(=O)c1ccc(OC)cc1 (stereo partly drawn) [Example 2]
3. CCCCN(CC(=O)Nc1cc(N(C)C)c2c(c1O)C(=O)C1=C(O)[C@]3(O)C(=O)C(C(N)=O)=C(O)[C@@H](N(C)C)[C@@H]3C[C@@H]1C2)C(=O)OCOC(=O)c1ccco1 [Example 30]
4. CCCCN(CC(=O)Nc1cc(N(C)C)c2c(c1O)C(=O)C1=C(O)[C@]3(O)C(=O)C(C(N)=O)=C(O)[C@@H](N(C)C)[C@@H]3C[C@@H]1C2)C(=O)OCOC(=O)c1ccc(F)cc1 [Example 4]

Marked response:
1. 0.5 to 8 µg/mL
2. 2 to 8 µg/mL
3. 1 to 8 µg/mL
4. 2 to 16 µg/mL

This collection of values is drawn from patent US20070049564A1.
